# TARGET_DESC: human cyclin-dependent kinase 2 (Cdk2) (Homo sapiens)
# Construct: poly-histidine; made in house; host or cells: E. coli
# PROTOCOL_SUMMARY: Kinetic thiol consumption assay with wild type Cdk2 (C177)
# Format: binding
# Design: unit not given here
# EXPERIMENTAL_CONTEXT: 500 μM ligand, 5 μM thiol, phosphate buffer pH 8
QUANTITY_MEASURED: Rate constant with Cdk2 (k(Cdk2))
Answers are plain numbers.

Go through the list and state Rate constant with Cdk2 (k(Cdk2)) for each entry.
1. C=CC(=O)Nc1ccc(C(=O)OC)cc1
2. C=CC(=O)N1CCn2c(C(=O)NC3CC3)ccc2C1C (stereo not drawn)
3. C=CC(=O)N1CCC2CCC(C1)N2C (stereo not drawn)

RESULT:
0.1733
0.02965
0.01115

Entry source: patent US11415579B2
